Cited source for all entries: patent US20190194347A1

biological target: endogenous human HER3 on human cancer cells (SK-Br-3, MCF7, BT-474) (human, UniProt P21860 20-1342); assay: cell-based or functional assay
measured attribute: % inhibition of proliferation, SK-Br-3, 10 µg/ml IgG (%)

MOR09823 (antibody, V domains shown) VH: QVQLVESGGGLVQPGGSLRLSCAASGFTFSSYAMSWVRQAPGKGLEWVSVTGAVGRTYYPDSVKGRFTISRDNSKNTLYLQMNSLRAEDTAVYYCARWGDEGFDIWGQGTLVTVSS VL: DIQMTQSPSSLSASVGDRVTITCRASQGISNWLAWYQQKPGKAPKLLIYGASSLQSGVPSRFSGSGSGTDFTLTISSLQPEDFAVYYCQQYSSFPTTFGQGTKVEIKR :: 39
MOR09824 (antibody, human IgG1, kappa, V domains shown) VH: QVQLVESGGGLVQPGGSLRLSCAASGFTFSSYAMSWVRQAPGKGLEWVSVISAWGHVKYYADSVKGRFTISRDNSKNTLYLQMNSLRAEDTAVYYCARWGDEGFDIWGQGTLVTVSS VL: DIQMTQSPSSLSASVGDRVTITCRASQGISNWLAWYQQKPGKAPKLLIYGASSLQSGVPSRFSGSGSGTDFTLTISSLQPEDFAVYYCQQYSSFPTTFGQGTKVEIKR :: 33
MOR09974 (antibody, human IgG1, kappa, V domains shown) VH: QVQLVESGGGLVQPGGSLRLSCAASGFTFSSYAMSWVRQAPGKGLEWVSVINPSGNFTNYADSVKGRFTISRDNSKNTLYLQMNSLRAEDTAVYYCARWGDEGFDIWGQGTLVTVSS VL: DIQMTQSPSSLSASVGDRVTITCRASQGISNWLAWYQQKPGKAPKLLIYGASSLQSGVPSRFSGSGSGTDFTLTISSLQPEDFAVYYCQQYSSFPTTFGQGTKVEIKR :: 35
MOR09825 (antibody, human IgG1, kappa, V domains shown) VH: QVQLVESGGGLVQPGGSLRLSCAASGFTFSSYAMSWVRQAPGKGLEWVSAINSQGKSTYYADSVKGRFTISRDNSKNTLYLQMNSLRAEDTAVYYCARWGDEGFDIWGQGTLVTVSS VL: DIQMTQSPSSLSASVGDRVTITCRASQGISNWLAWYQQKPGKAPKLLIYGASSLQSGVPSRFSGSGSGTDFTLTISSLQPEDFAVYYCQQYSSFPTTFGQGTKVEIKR :: 41
MOR10703 (antibody, human IgG1, kappa, V domains shown) VH: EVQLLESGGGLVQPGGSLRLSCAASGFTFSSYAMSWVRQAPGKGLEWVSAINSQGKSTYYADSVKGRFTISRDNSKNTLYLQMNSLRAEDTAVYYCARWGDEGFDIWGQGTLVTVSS VL: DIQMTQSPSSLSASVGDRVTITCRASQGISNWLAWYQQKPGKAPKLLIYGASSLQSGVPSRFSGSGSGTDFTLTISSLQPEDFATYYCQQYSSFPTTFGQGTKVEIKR :: 35
